Assay: Average particle size of the preparations, measured with a particle size measurement apparatus
Type: physicochemical
Details: preparations of Examples 21 and 22 (composition containing the compound and f7 siRNA-1)
attribute measured: Particle size of obtained preparation (nm)

| molecule smiles | experimental result |
| --- | --- |
| CCCCCCCC/C=C\CCCCCCCCC1(CCCCCCCC/C=C\CCCCCCCC)CN(C)C1 | 115 |
| CCCCC/C=C\C/C=C\CCCCCCCCCCC1(CCCCCCCCCC/C=C\C/C=C\CCCCC)CN(C)C1 | 128 |
| CCCCC/C=C\C/C=C\CCCCCCCCC1(CCCCCCCC/C=C\C/C=C\CCCCC)CN(CCC)C1 | 116 |
| CCCCC/C=C\C/C=C\CCCCCCCCC1(CCCCCCCC/C=C\C/C=C\CCCCC)CN(C(=O)OCCCN(C)C)C1 | 127 |
| CCCCC/C=C\C/C=C\CCCCCCCCC1(CCCCCCCC/C=C\C/C=C\CCCCC)CN(C)C1 | 113 |
| CCCCCC/C=C\CCCCCCCCC1(CCCCCCCC/C=C\CCCCCC)CN(C)C1 | 123 |
